Molecular target: hydroxylase (Homo sapiens)
Sequence (P05093 1-508): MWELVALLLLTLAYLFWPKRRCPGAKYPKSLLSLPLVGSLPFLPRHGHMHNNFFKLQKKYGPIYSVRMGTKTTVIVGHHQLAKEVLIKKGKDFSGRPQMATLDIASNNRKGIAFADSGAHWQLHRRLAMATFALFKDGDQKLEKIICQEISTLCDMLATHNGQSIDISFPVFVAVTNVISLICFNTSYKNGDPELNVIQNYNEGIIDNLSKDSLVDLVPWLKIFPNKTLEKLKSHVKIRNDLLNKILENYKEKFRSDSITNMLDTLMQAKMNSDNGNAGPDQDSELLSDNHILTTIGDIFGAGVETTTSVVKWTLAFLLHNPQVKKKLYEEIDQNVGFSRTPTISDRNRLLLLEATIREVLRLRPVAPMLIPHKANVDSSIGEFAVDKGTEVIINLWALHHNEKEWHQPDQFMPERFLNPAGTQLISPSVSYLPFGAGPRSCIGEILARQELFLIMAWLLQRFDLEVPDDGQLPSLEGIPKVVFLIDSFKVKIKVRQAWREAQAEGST
parameter-measured: IC50 (µM)

>>> observed_measurement("O=C(NCc1ccncc1)C1CCCCC1 [Cy NH H H 4, reference compound]")
40
